Assay: Apparent elimination half life in ICR mouse plasma at 80 mg/kg, po administered as single dose
Format: ADME, organism-based
Conditions: ICR, plasma, read-out: betat1/2(app) (converted)
Quick reference: half-life of the listed items.
# output: numeric value plus its unit

The cases that follow already have their half-life on record.
CCCN(CCC)CCOc1ccc2c(=O)c3c(Cl)c(Cl)ccc3[nH]c2c1 | 2.29 h
CCCN(CCC)CCCOc1ccc2c(=O)c3c(F)cc(F)cc3[nH]c2c1 | 7.78 h
CCCCN(CCCC)CCOc1ccc2c(=O)c3c(Cl)c(Cl)ccc3[nH]c2c1 | 6 h

Now consider the entry below.
What half-life value was documented for this compound, CCN(CC)CCOc1ccc2c(=O)c3ccc(Cl)cc3[nH]c2c1 ? 1.9 h

Origin of values: ChEMBL document CHEMBL4390668
